Reported values of inhibition in vivo at 50 mg/kg for individual entries
system: mice sarcoma S180; assay: Growth inhibition of S180 sarcoma in mice; format: in vivo, Kunming healthy mice; conditions: Mus musculus, S-180; mice, iv, 50 mg/kg; read-out: Inhibition rate (%) S180 sarcoma

Request: I am curious: what inhibition in vivo at 50 mg/kg value has been reported for CCOC(=O)c1nn(O)c2c(=O)n(C3OC(COC(C(=O)O)P(NC(C)C)OCC#N)C(O)C3O)nnc12 (centres unmarked) ?
Result: < 40%

Request: Could you share which inhibition in vivo at 50 mg/kg value was measured for CCCc1nn(CC(N)=O)c2c(=O)n(C3CSC(CO)O3)nnc12 (centres unmarked) ?
Result: < 40%

Request: Any idea what its inhibition in vivo at 50 mg/kg is? The compound is CCCc1nn(C)c2c(=O)n(C3OC(COC(C(=O)O)P(=O)(NC(C)C)NC(C)C)C(O)C3O)nnc12 (centres unmarked)
Result: < 20%

Request: Would you mind telling me what inhibition in vivo at 50 mg/kg value was observed for Nc1nn(O)c2c(=O)n(C3OC(CO)C(O)C3O)nnc12 (centres unmarked) ?
Result: < 40%

Request: State the recorded inhibition in vivo at 50 mg/kg for this entry: `CCCc1nn(C)c2c(=O)n(COC(CO)CO)nnc12`
Result: < 20%

***
Request: What value of inhibition in vivo at 50 mg/kg has been reported for the following compound? NC(=O)n1nc(N2CCCCC2)c2nnn(C3OC(CO)C(O)C3O)c(=O)c21 (centres unmarked)
Result: < 20%

Request: // returns reported inhibition in vivo at 50 mg/kg for input CCCc1nn(C2CC2)c2c(=O)n(C3OC(CO)C(O)C3O)nnc12 (centres unmarked)
Result: < 20%

Request: Give the measured inhibition in vivo at 50 mg/kg of CCOC(=O)c1nn(CC(N)=O)c2c(=O)n(C3OC(CO)C(O)C3O)nnc12 (centres unmarked) .
Result: < 40%
